# Test Description: DRUGMATRIX: Imidazoline I2, Central radioligand binding (ligand: [3H] Idazoxan)
# Format: cell membranes, Rattus norvegicus, Wistar, Cerebral cortex, Membrane
# Condition Info: Not Active = under 50% inhibition at 10 µM
Property: Ki

Example entries and their recorded answers appear below.
Substance	Property	Value
POVIDONE	Ki	Not Active
LEAD(IV) ACETATE	Ki	Not Active
CARBOXYMETHYLCELLULOSE	Ki	Not Active
COPPER(II) OXIDE	Ki	Not Active

stdin: Looking for the measured Ki of CHROMIC CHLORIDE , can you help?
stdout: Not Active

====

# Assayed Target: Progesterone receptor (Bos taurus)
# Sequence (Q690N0 whole entry): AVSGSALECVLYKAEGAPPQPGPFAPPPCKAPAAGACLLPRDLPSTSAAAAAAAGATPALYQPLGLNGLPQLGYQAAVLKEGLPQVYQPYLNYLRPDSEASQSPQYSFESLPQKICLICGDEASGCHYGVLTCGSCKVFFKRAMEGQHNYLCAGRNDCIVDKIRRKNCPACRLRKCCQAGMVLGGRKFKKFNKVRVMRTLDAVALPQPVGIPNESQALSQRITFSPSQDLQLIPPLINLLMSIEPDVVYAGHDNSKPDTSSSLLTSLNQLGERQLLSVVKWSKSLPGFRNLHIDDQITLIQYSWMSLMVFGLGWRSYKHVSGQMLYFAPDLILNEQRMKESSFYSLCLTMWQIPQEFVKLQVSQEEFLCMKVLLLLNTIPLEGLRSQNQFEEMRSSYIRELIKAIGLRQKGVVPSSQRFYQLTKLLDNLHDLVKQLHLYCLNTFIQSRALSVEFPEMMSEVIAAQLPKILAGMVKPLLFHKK
# Test Description: DRUGMATRIX: Progesterone radioligand binding (ligand: [3H] R-5020)
# Assay type: tissue-based, Uterus
# Condition Info: Not Active = under 50% inhibition at 10 µM; read-out: IC50
pIC50: −log10 of the molar value.
Would you please tag the item 1 when its pIC50 is 6 or above, and -1 when it is below?

stdin: Does CC(=O)O[C@]1(C(C)=O)CC[C@H]2[C@@H]3C[C@H](C)C4=CC(=O)CC[C@]4(C)[C@H]3CC[C@@]21C [MEDROXYPROGESTERONE ACETATE] have a reported pIC50 of at least 6?
stdout: 1

stdin: Now this one: CN(CCOc1ccc(C[C@H](Nc2ccccc2C(=O)c2ccccc2)C(=O)O)cc1)c1ccccn1
stdout: -1

stdin: Now this one: C#C[C@]1(O)CC[C@H]2[C@@H]3CCC4=CC(=O)CC[C@@H]4[C@H]3CC[C@@]21C
stdout: 1

stdin: Now this one: CC1(COc2ccc(CC3SC(=O)NC3=O)cc2)CCCCC1 (stereo unspecified)
stdout: -1

stdin: Now this one: C#C[C@]1(O)CC[C@H]2[C@@H]3[C@H](C)CC4=C(CCC(=O)C4)[C@H]3CC[C@@]21C
stdout: 1
